# experiment.summary: qHTS assay to test for compound auto fluorescence at 460 nm (blue) in HepG2 cell free culture (AID 720685)
# reported.conditions: Cell-free culture medium, blue autofluorescence 405/460 nm; series mostly up to 91.3 µM
Calls of active or inactive are those of the source. The call rests on the fitted dose curve; in most records, active means well fitted curve in the direction sought with a large enough effect in the repeat runs; inconclusive means weak or mixed curves; inactive means flat fitted curve, though single readings scatter. Starred links: 1 amine or outer side, 2 acyl side, 3 side chain; linkers in the order of their positions; H or OH if unused. Positions of bridges follow the written chain, without caps; N, C: chain ends. Non-standard residues stand in square brackets, D forms with d. Residues, ends and D or L forms follow the SMILES beside them. Chains are numbered I, II in the order given. Actinocin(9to1) = Cc1c2oc3c(C)ccc(C(=O)[*:1])c3nc-2c(C(=O)[*:2])c(N)c1=O; NMeV = CN[C@H](C(=O)O)C(C)C; Sar = CNCC(=O)O

# compound, fluorescence, % of fluorescent control
records = [
    ("Cc1cc(Cc2cc(C)cc(C(C)(C)C)c2O)c(O)c(C(C)(C)C)c1", "inactive"),
    ("COc1ccc(CCN2CCC(Nc3nc4ccccc4n3Cc3ccc(F)cc3)CC2)cc1", "inactive"),
    ("CCn1c2ccccc2c2cc(N)ccc21", "inactive"),
    ("CCCCC(CC)COC(=O)CC(C(=O)OCC(CC)CCCC)S(=O)(=O)O (centres undefined)", "inactive"),
    ("C1COC(NC(C2CC2)C2CC2)=N1", "inactive"),
    ("CC(C(O)c1ccc(O)cc1)N1CCC(Cc2ccccc2)CC1 (centres undefined)", "inactive"),
    ("CCOC(=O)C(C)C(C)=O (centres undefined)", "inactive"),
    ("Cc1c2oc3c(C)ccc(C(=O)N[C@@H]4C(=O)N[C@H](C(C)C)C(=O)N5CCC[C@H]5C(=O)N(C)CC(=O)N(C)[C@@H](C(C)C)C(=O)O[C@@H]4C)c3nc-2c(C(=O)N[C@@H]2C(=O)N[C@H](C(C)C)C(=O)N3CCC[C@H]3C(=O)N(C)CC(=O)N(C)[C@@H](C(C)C)C(=O)O[C@@H]2C)c(N)c1=O (I: T[dV]P[Sar][NMeV] / II: T[dV]P[Sar][NMeV]; ester I:1-I:C, II:1-II:C; linker I:N-II:N via Actinocin(9to1))", "inactive"),
    ("O=C1Nc2ccccc2C1(c1ccc(O)cc1)c1ccc(O)cc1", "inactive"),
]
